# Test system: Danio rerio larvae (5 dpf)
# assayComment: activity during period 15 (no stimuli), difference vs DMSO (percentage points (treated minus DMSO)); higher = more of the behaviour than the DMSO vehicle control
# conditionsUsed: 10 µM; exposure time: 3 h pre-incubation + 3 h imaging
Where a name gives a salt, the structure may show the parent alone.
# binarize activity during period 15: threshold -7 inclusive, high side met, low side not met

Example results:
| compound | className |
| --- | --- |
| CC(O)(CS(=O)(=O)c1ccc(F)cc1)C(=O)Nc1ccc(C#N)c(C(F)(F)F)c1 (configuration not stated) [Bicalutamide] | met |
| COc1ccc(C(CN(C)C)C2(O)CCCCC2)cc1 (configuration not stated) [Venlafaxine hydrochloride] | not met |
| COc1cc2c(cc1OC)C1CC(=O)C(CC(C)C)CN1CC2 (configuration not stated) | met |
| CC(C)C[C@H]1C(=O)N2CCC[C@H]2[C@]2(O)O[C@](NC(=O)[C@@H]3C=C4c5cccc6[nH]c(Br)c(c56)C[C@H]4N(C)C3)(C(C)C)C(=O)N12 [Bromocriptine mesylate] | met |
| CC[C@@H](C(N)=O)N1CCCC1=O | met |

Moving on to the next compound.
Prompt line: Threshold query (activity during period 15 >= -7) on C=CCN1C[C@H](C(=O)N(CCCN(C)C)C(=O)NCC)C[C@@H]2c3cccc4[nH]cc(c34)C[C@H]21
Response line: not met
